B1: Glucocorticoid receptor, residues 419 to 494; numbered along this chain, P04150 (parent)
chain: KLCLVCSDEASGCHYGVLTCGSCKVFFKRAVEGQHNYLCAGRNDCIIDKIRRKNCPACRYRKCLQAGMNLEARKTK

variants of: B1; assay: abundance fitness (aPCA) (normalised: wild type 0, dead -1); higher = more abundant; growth selection in yeast, the domain comes from the species named; details: Homo sapiens
Field: abundance fitness. Provide a value for each of the variants that follow.
Answers are plain numbers.

>>> recorded_value("N43T")
-0.134
>>> recorded_value("R61A")
0.054
>>> recorded_value("I47N")
-0.164
>>> recorded_value("K53M")
0.001
>>> recorded_value("D48R")
-0.536
>>> recorded_value("C13H")
0.112

Hi team, please reply with abundance fitness for each item in this list.
1. T75Q
2. I50G
3. G16D
4. C13P
5. L64G
6. L18M
7. A40T
8. D48W

**A:**
1: -0.099; 2: 0.009; 3: -0.078; 4: -0.07; 5: -0.273; 6: -0.077; 7: -0.067; 8: -0.415

Hi team, please reply with abundance fitness for each item in this list.
1. S11C
2. R52T
3. N43A
4. K1D
5. D44P

**A:**
1. -0.102
2. -0.129
3. -0.027
4. -0.002
5. -0.323
